Target desc: Growth hormone secretagogue receptor type 1 (Homo sapiens)
Assay: Displacement of [125I-His9]ghrelin from human GHS1a receptor expressed in LLC PK1 cells
I'd appreciate it if you marked entries Condition met when IC50 is lower than 0.6 µM and Condition not met when it is not.

# count of solved cases: 6
>  <Structure string>
Cn1c(Cc2c[nH]c3ccccc23)nnc1[C@@H](Cc1c[nH]c2ccccc12)NC(=O)C(C)(C)N

>  <Discrete label>
Condition not met

$$$$
>  <Structure string>
COc1ccc(Cn2c(CCc3ccccc3)nnc2[C@@H](Cc2c[nH]c3ccccc23)NC(=O)C(C)(C)N)c(OC)c1

>  <Discrete label>
Condition met

$$$$
>  <Structure string>
CC(C)(N)C(=O)N[C@H](Cc1c[nH]c2ccccc12)c1nnc(CCc2ccccc2)n1Cc1ccccn1

>  <Discrete label>
Condition not met

$$$$
>  <Structure string>
COc1cc(Cn2c(CCc3c[nH]c4ccccc34)nnc2[C@@H](Cc2c[nH]c3ccccc23)NC(=O)C(C)(C)N)cc(OC)c1

>  <Discrete label>
Condition met

$$$$
>  <Structure string>
Cn1c(CCc2c[nH]c3ccccc23)nnc1[C@@H](Cc1c[nH]c2ccccc12)NC(=O)C(C)(C)N

>  <Discrete label>
Condition met

$$$$
>  <Structure string>
COc1ccc(Cn2c(CCCc3c[nH]c4ccccc34)nnc2[C@@H](Cc2c[nH]c3ccccc23)NC(=O)C(C)(C)N)c(OC)c1

>  <Discrete label>
Condition not met

$$$$

Regarding "COc1ccc(Cn2c(CCc3ccccc3)nnc2[C@@H](Cc2c[nH]c3ccccc23)NC(=O)C(C)(C)N)cc1" , kindly confirm whether its IC50 is beneath 0.6 µM.
Condition met

Regarding "CC(C)(N)C(=O)N[C@H](Cc1c[nH]c2ccccc12)c1nnc(CCc2c[nH]c3ccccc23)n1CC(c1ccccc1)c1ccccc1" , kindly confirm whether its IC50 is beneath 0.6 µM.
Condition not met

Regarding "COc1ccc(Cn2c(Cc3c[nH]c4ccccc34)nnc2[C@@H](Cc2c[nH]c3ccccc23)NC(=O)C(C)(C)N)c(OC)c1" , kindly confirm whether its IC50 is beneath 0.6 µM.
Condition not met

Regarding "CC(C)(N)C(=O)N[C@H](Cc1c[nH]c2ccccc12)c1nnc(CCCc2c[nH]c3ccccc23)n1Cc1ccccc1" , kindly confirm whether its IC50 is beneath 0.6 µM.
Condition met

---

Target desc: Growth hormone secretagogue receptor type 1 (Homo sapiens)
Assay: Displacement of [125I-His9]ghrelin from human GHS1a receptor expressed in LLC PK1 cells
Here, each record is paired with measured pIC50 data.
# reply with the number alone; pIC50 is -log10 of concentration in mol/L

For orientation, consider the following solved cases.
>  <Structure string>
Cc1ccc(Cn2c(Cc3ccccc3)nnc2[C@@H](Cc2c[nH]c3ccccc23)NC(=O)C(C)(C)N)cc1

>  <pIC50>
6.08

$$$$
>  <Structure string>
CC(C)(N)C(=O)N[C@H](Cc1c[nH]c2ccccc12)c1nnc(CCc2ccccc2)n1Cc1ccc(Cl)c(Cl)c1

>  <pIC50>
6.19

$$$$
>  <Structure string>
CC(C)(N)C(=O)N[C@H](Cc1c[nH]c2ccccc12)c1nnc(Cc2ccccc2)n1CCc1c[nH]c2ccccc12

>  <pIC50>
6.15

$$$$
>  <Structure string>
CC(C)(N)C(=O)N[C@H](Cc1c[nH]c2ccccc12)c1nnc(Cc2c[nH]c3ccccc23)n1CCc1ccccc1

>  <pIC50>
6.52

$$$$
>  <Structure string>
COc1ccc(Cn2c(CCCc3c[nH]c4ccccc34)nnc2[C@@H](Cc2c[nH]c3ccccc23)NC(=O)C(C)(C)N)cc1

>  <pIC50>
6.84

$$$$
>  <Structure string>
CC(C)(N)C(=O)N[C@H](Cc1c[nH]c2ccccc12)c1nnc(Cc2ccccc2)n1Cc1ccccc1

>  <pIC50>
6.30

$$$$
>  <Structure string>
CC(C)(N)C(=O)N[C@H](Cc1c[nH]c2ccccc12)c1nnc(CCc2c[nH]c3ccccc23)n1Cc1ccc(Br)cc1

>  <pIC50>
7.00

$$$$
>  <Structure string>
CC(C)(N)C(=O)N[C@H](Cc1c[nH]c2ccccc12)c1nnc(CCc2c[nH]c3ccccc23)n1Cc1ccccc1

>  <pIC50>
7.82

$$$$

Using the record for "CC(C)(N)C(=O)N[C@H](Cc1c[nH]c2ccccc12)c1nnc(CCc2c[nH]c3ccccc23)n1CCc1ccccc1" , report its pIC50.
7.10

Using the record for "CC(C)(N)C(=O)N[C@H](Cc1c[nH]c2ccccc12)c1nnc(CCc2ccccc2)n1CCc1ccccc1" , report its pIC50.
6.51

Using the record for "CC(C)(N)C(=O)N[C@H](Cc1c[nH]c2ccccc12)c1nncn1CCc1c[nH]c2ccccc12" , report its pIC50.
6.07

Using the record for "COc1ccc(CCn2c(CCc3ccccc3)nnc2[C@@H](Cc2c[nH]c3ccccc23)NC(=O)C(C)(C)N)cc1" , report its pIC50.
6.26

Using the record for "CC(C)(N)C(=O)N[C@H](Cc1c[nH]c2ccccc12)c1nnc(CCc2c[nH]c3ccccc23)n1Cc1ccc(Cl)c(Cl)c1" , report its pIC50.
7.26

Using the record for "CC(C)(N)C(=O)N[C@H](Cc1c[nH]c2ccccc12)c1nnc(Cc2ccccc2)n1Cc1ccc(Cl)c(Cl)c1" , report its pIC50.
6.28

---

Here, each record is paired with measured pIC50 data.
Target desc: Growth hormone secretagogue receptor type 1 (Homo sapiens)
Assay: Displacement of [125I-His9]ghrelin from human GHS1a receptor expressed in LLC PK1 cells
Assay type: cell-based
# reply with the number alone; pIC50 is -log10 of concentration in mol/L

Using the record for "CC(C)(N)C(=O)N[C@H](Cc1c[nH]c2ccccc12)c1nnc(Cc2ccccc2)n1Cc1ccc(Br)cc1" , report its pIC50.
6.36

Using the record for "COc1ccc(Cn2c(Cc3ccccc3)nnc2[C@@H](Cc2c[nH]c3ccccc23)NC(=O)C(C)(C)N)c(OC)c1" , report its pIC50.
6.25

Using the record for "COc1ccc(Cn2c(Cc3c[nH]c4ccccc34)nnc2[C@@H](Cc2c[nH]c3ccccc23)NC(=O)C(C)(C)N)cc1" , report its pIC50.
6.18

Using the record for "CC(C)(N)C(=O)N[C@H](Cc1c[nH]c2ccccc12)c1nnc(CCc2ccccc2)n1Cc1ccc(F)cc1" , report its pIC50.
6.40

Using the record for "Cc1ccc(Cn2c(CCCc3ccccc3)nnc2[C@@H](Cc2c[nH]c3ccccc23)NC(=O)C(C)(C)N)cc1" , report its pIC50.
7.68

Using the record for "CC(C)(N)C(=O)N[C@H](Cc1c[nH]c2ccccc12)c1nnc(Cc2c[nH]c3ccccc23)[nH]1" , report its pIC50.
5.66

Using the record for "COc1cccc(Cn2c(CCCc3c[nH]c4ccccc34)nnc2[C@@H](Cc2c[nH]c3ccccc23)NC(=O)C(C)(C)N)c1" , report its pIC50.
7.66

---

Target desc: Growth hormone secretagogue receptor type 1 (Homo sapiens, UniProt Q92847)
Sequence (Q92847 whole entry): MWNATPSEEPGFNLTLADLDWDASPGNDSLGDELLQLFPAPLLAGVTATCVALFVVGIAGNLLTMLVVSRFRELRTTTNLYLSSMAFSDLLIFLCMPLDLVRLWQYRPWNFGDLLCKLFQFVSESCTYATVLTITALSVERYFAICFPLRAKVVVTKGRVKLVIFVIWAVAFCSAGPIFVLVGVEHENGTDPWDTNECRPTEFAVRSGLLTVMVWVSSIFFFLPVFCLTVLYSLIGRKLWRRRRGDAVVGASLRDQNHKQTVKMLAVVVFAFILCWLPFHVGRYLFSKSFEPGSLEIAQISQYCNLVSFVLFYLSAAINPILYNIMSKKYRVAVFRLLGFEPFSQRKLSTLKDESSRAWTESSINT
Assay: Activity at human GHS1a receptor expressed in CHO cells assessed as intracellular calcium mobilization relative to 0.1 uM ghrelin
Format: functional, cell-based
Reported metric: Activity
Give the value; after it, write the unit.

>  <Structure string>
CCc1ccc(Cn2c(CCc3ccccc3)nnc2[C@@H](Cc2c[nH]c3ccccc23)NC(=O)C(C)(C)N)cc1

>  <Observed measurement>
26%

$$$$

Using the record for "CC(C)(N)C(=O)N[C@H](Cc1c[nH]c2ccccc12)c1nnc(Cc2ccccc2)n1Cc1cccc2ccccc12" , report its Activity.
78%

Using the record for "CC(C)(N)C(=O)N[C@H](Cc1c[nH]c2ccccc12)c1nnc(Cc2ccccc2)n1Cc1ccc(F)cc1" , report its Activity.
60%

Using the record for "COc1ccc(Cn2c(CCc3c[nH]c4ccccc34)nnc2[C@@H](Cc2c[nH]c3ccccc23)NC(=O)C(C)(C)N)cc1" , report its Activity.
0%

Using the record for "CC(C)(N)C(=O)N[C@H](Cc1c[nH]c2ccccc12)c1nnc(CCc2ccccc2)n1Cc1ccc(F)cc1" , report its Activity.
20%

Using the record for "CC(C)(N)C(=O)N[C@H](Cc1c[nH]c2ccccc12)c1nnc(CCc2c[nH]c3ccccc23)n1-c1ccccc1" , report its Activity.
91%

---

Target desc: Growth hormone secretagogue receptor type 1 (Homo sapiens)
Assay: Activity at human GHS1a receptor expressed in CHO cells assessed as intracellular calcium mobilization relative to 0.1 uM ghrelin
Assay type: functional, cell-based
Tag: TRUE if measured Activity is not below 60%, FALSE if it is.

# count of solved cases: 3
>  <Structure string>
COc1ccc(Cn2c(CCCc3c[nH]c4ccccc34)nnc2[C@@H](Cc2c[nH]c3ccccc23)NC(=O)C(C)(C)N)c(OC)c1

>  <Discrete label>
FALSE

$$$$
>  <Structure string>
CC(C)(N)C(=O)N[C@H](Cc1c[nH]c2ccccc12)c1nnc(Cc2c[nH]c3ccccc23)n1CCc1ccccc1

>  <Discrete label>
TRUE

$$$$
>  <Structure string>
CC(C)(N)C(=O)N[C@H](Cc1c[nH]c2ccccc12)c1nnc(CCc2c[nH]c3ccccc23)n1CC(c1ccccc1)c1ccccc1

>  <Discrete label>
TRUE

$$$$

// switching to the query compound
Activity >= 60% for "CC(C)(N)C(=O)N[C@H](Cc1c[nH]c2ccccc12)c1nnc(Cc2ccccc2)n1Cc1ccccc1" ?
FALSE
